# Test: Solubility in DPBS (A280 of supernatant)
# Format: physicochemical
# Assay setup: DPBS, Table 2; read-out: Solubility
Numbered stars: 1 amine (or outer) side, 2 acyl side, 3 side chain; on linkers, the order of the positions; unused ones are H or OH. Bridge positions count the residues as written; N and C are the ends. Square brackets hold non-standard residues; d marks the D form. Peptide text beside a SMILES is read from it. 3Aminoazetidine3carboxyl = O=C(C1(N[*:1])CN([*:3])C1)[*:2]; dαMeDab(Me) = CN(CC[C@@](C)(N[*:1])C(=O)[*:2])[*:3]; αMeDab(Me) = CN(CC[C@](C)(N[*:1])C(=O)[*:2])[*:3]; X8 = CN(CC=[*:3])CCC[C@](C)(N[*:1])C(=O)[*:2]; X3 = O=C([C@@]1(N[*:1])CCN([*:3])C1)[*:2]; X9 = C[C@](CCC=[*:3])(N[*:1])C(=O)[*:2]; X2 = O=C(OCC=CCOC(=O)[*:2])[*:1]
Reported solubility values follow for various compounds
Answer format: numeric, µM implied, no suffix.

Study these solved cases before continuing.
Compound	Measurement units	solubility
CC[C@H](C)[C@@H]1NC(=O)[C@H](Cc2c[nH]cn2)NC(=O)[C@H](C)NC(=O)[C@H](CC(=O)O)NC(=O)[C@H](CC(C)C)NC(=O)[C@H]([C@@H](C)CC)NC(=O)[C@](C)(NC(=O)[C@H](C)NC(C)=O)CCN(C)C(=O)OCC=CCOC(=O)N(C)CC[C@@](C)(C(=O)N[C@@H](CCCNC(=N)N)C(=O)N[C@H](C(=O)N[C@@H](Cc2c[nH]c3ccccc23)C(N)=O)C(C)C)NC1=O [FP0594c, Ac-A-MG-I-L-D-A-H-I-MF-R-V-W-NH2] (Ac-A[dαMeDab(Me)]ILDAHI[αMeDab(Me)]RVW-NH2; linker 2-9 via X2)	µM	166
CC[C@H](C)[C@@H]1NC(=O)[C@H](Cc2c[nH]cn2)NC(=O)[C@H](C)NC(=O)[C@H](CC(=O)O)NC(=O)[C@H](CC(C)C)NC(=O)[C@H]([C@@H](C)CC)NC(=O)[C@](C)(NC(=O)[C@H](C)NC(C)=O)CCC=CCN(C)CCC[C@@](C)(C(=O)N[C@@H](CCCNC(=N)N)C(=O)N[C@H](C(=O)N[C@@H](Cc2c[nH]c3ccccc23)C(N)=O)C(C)C)NC1=O [FP0509a, Ac-A-R4-I-L-D-A-H-I-MH-R-V-W-NH2] (Ac-A[X9]ILDAHI[X8]RVW-NH2; staple 2-9)	µM	192
CC[C@H](C)[C@@H]1NC(=O)[C@H](Cc2c[nH]cn2)NC(=O)[C@H](C)NC(=O)[C@H](CC(=O)O)NC(=O)[C@H](CC(C)C)NC(=O)[C@H]([C@@H](C)CC)NC(=O)[C@](C)(NC(=O)[C@H](C)NC(C)=O)CCCCCCCCCOC(=O)N2CC[C@@](C(=O)N[C@@H](CCCNC(=N)N)C(=O)N[C@H](C(=O)N[C@@H](Cc3c[nH]c4ccccc34)C(N)=O)C(C)C)(C2)NC1=O [FP0217rc, Ac-A-R8-I-L-D-A-H-I-MB-R-V-W-NH2]	µM	26
CC[C@H](C)[C@@H]1NC(=O)[C@H](Cc2c[nH]cn2)NC(=O)[C@H](C)NC(=O)[C@H](CC(=O)O)NC(=O)[C@H](CC(C)C)NC(=O)[C@H]([C@@H](C)CC)NC(=O)C2(NC(=O)[C@H](C)NC(C)=O)CN(C2)C(=O)OCC=CCOC(=O)N2CC[C@](C(=O)N[C@@H](CCCNC(=N)N)C(=O)N[C@H](C(=O)N[C@@H](Cc3c[nH]c4ccccc34)C(N)=O)C(C)C)(C2)NC1=O [FP0616c, Ac-A-MA-I-L-D-A-H-I-MC-R-V-W-NH2] (Ac-A[3Aminoazetidine3carboxyl]ILDAHI[X3]RVW-NH2; linker 2-9 via X2)	µM	56

Next, consider the following compound.
Q) For the compound shown here, CC[C@H](C)[C@@H]1NC(=O)[C@H](Cc2c[nH]cn2)NC(=O)[C@H](C)NC(=O)[C@H](CC(=O)O)NC(=O)[C@H](CC(C)C)NC(=O)[C@H]([C@@H](C)CC)NC(=O)[C@](C)(NC(=O)[C@H](C)NC(C)=O)CCCCCCC=CCOC(=O)N2CC[C@@](C(=O)N[C@@H](CCCNC(=N)N)C(=O)N[C@](C)(C(=O)N[C@@H](Cc3c[nH]c4ccccc34)C(N)=O)C(C)C)(C2)NC1=O [FP0632c, Ac-A-R8-I-L-D-A-H-I-MB-R-aMeV-W-NH2] , give the reported solubility.
A) 13
